Origin of values: patent US20240158348A1

Test system: goosegrass (Eleusine indica)
Experiment: Test C preemergence, goosegrass
Format: in vivo
Experimental Parameters: 125 g ai/ha Preemergence; 0 is no effect, 100 is complete control
Measured Quantity: Plant response rating (0 to 100 scale), Goosegrass
Form: value (number only, do not type unit).

Molecule: Cc1c(N2CCC(OC3CCC3)C2=O)cc(N(COC(=O)C(C)(C)C)S(=O)(=O)C(F)(F)F)c(C)c1C (stereo not shown)
Numeric Result: 90
--
Molecule: Cc1c(N2CCCC(OC3CC3)C2=O)cc(N(COC(=O)C(C)(C)C)S(=O)(=O)C(F)(F)F)c(C)c1F (stereo not shown)
Numeric Result: 100
--
Molecule: COC(=O)N(c1cc(N2CCC(OC3CC3)C2=O)c(C)cc1Cl)S(=O)(=O)C(F)(F)F (stereo not shown)
Numeric Result: 100
--
Molecule: CCOC(=O)N(c1cc(N2CCC(OC3CC3)C2=O)c(C)cc1C)S(=O)(=O)C(F)(F)F (stereo not shown)
Numeric Result: 70
--
Molecule: Cc1c(NS(=O)(=O)C(F)(F)F)cc(N2CCC(OC3CCC3)C2=O)c(C)c1C (stereo not shown)
Numeric Result: 100

Ask: Would you mind telling me what Plant response rating (0 to 100 scale), Goosegrass value was observed for Cc1c(NS(=O)(=O)C(F)(F)F)cc(N2CCCC(OC3CCC3)C2=O)c(C)c1F (stereo not shown) ?
Reply: 100

Ask: Can you share its Plant response rating (0 to 100 scale), Goosegrass? I mean this molecule: Cc1c(NS(=O)(=O)C(F)(F)F)cc(N2CCC(OC3CC3)C2=O)c(C)c1F (stereo not shown)
Reply: 100

Ask: Request the reported Plant response rating (0 to 100 scale), Goosegrass associated with C#CC(C)OC1CCN(c2cc(NS(=O)(=O)C(F)(F)F)c(C)cc2C)C1=O (stereo not shown)
Reply: 100

Ask: Could you tell me which Plant response rating (0 to 100 scale), Goosegrass is on file for Cc1c(N2CCC(OC3CC3)C2=O)cc(N(COC(=O)C(C)(C)C)S(=O)(=O)C(F)(F)F)c(C)c1F (stereo not shown) ?
Reply: 100

Ask: Param item = C#CCO/N=C1\CCN(c2cc(NS(=O)(=O)C(F)(F)F)c(C)cc2C)C1=O ; retrieve measured Plant response rating (0 to 100 scale), Goosegrass.
Reply: 100

Ask: May I ask what Plant response rating (0 to 100 scale), Goosegrass has been recorded for Cc1cc(C)c(N2CCC(OCC3CC3)C2=O)cc1NS(=O)(=O)C(F)(F)F (stereo not shown) ?
Reply: 100

Ask: Reported Plant response rating (0 to 100 scale), Goosegrass for Cc1c(N2CCC(OC3CCC3)C2=O)cc(N(COC(=O)C(C)(C)C)S(=O)(=O)C(F)(F)F)c(C)c1F (stereo not shown) : what is it?
Reply: 100

Ask: Given Cc1cc(C)c(N2CCC(OCC3CCC3)C2=O)cc1NS(=O)(=O)C(F)(F)F (stereo not shown) , state its recorded Plant response rating (0 to 100 scale), Goosegrass.
Reply: 100

Ask: I am curious: what Plant response rating (0 to 100 scale), Goosegrass value has been reported for Cc1cc(C)c(N2CCC(OCc3ccccc3)C2=O)cc1NS(=O)(=O)C(F)(F)F (stereo not shown) ?
Reply: 100

Ask: Quick one: Plant response rating (0 to 100 scale), Goosegrass of Cc1c(N2CCC(OC3CC3)C2=O)cc(N(COC(=O)C(C)(C)C)S(=O)(=O)C(F)(F)F)c(C)c1C (stereo not shown) ?
Reply: 90

Ask: # Plant response rating (0 to 100 scale), Goosegrass lookup, item Cc1cc(C)c(N(COC(=O)C(C)(C)C)S(=O)(=O)C(F)(F)F)cc1N1CCC(OCC2CC2(F)F)C1=O (stereo not shown)
Reply: 100
